Target: T1, PSMA Fab (biotinylated (site not stated))
T1 construct: The panning ELISA names only 'biotinylated PSMA Fab' captured on neutravidin coated plates; also called Anti-PSMA Fab; 006 PSMA Fab
Assay: clonal phage ELISA; biotinylated PSMA Fab on neutravidin plate, blocking buffer alone; anti-M13 HRP detection;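 further: crude clonal phage supernatants added without washing to wells pretreated with blocking buffer with or without PSMA antigen, short incubation, then washed before detecting bound phage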
Where no end group is shown, it is not given here.
So I've got a bunch of binders here, and I need their Phage binding ELISA signal, Anti-PSMA Fab values.
When you answer, write just the number.

Briefly, Phage binding ELISA signal, Anti-PSMA Fab measured for VGHVCLPPWMCTGF (also called Peptide-180 library clone) [Phage-3228] : 1.95

Briefly, Phage binding ELISA signal, Anti-PSMA Fab measured for PLPMCVPAWMCAGF (cysteine pairing not given here; also: fused to phage pIII, fusion site not given here, also called Peptide-180 library clone) [Phage-3236] : 1.95

Briefly, Phage binding ELISA signal, Anti-PSMA Fab measured for WEHRCTPEWMCTGF (also called Peptide-180 library clone) [Phage-3238] : 1.94

Briefly, Phage binding ELISA signal, Anti-PSMA Fab measured for VTAYCVPPWMCAVF (also called Peptide-180 library clone) [Phage-3231] : 1.95

Briefly, Phage binding ELISA signal, Anti-PSMA Fab measured for ITPLCSPAWMCQGL (also called Peptide-180 library clone) [Phage-3229] : 1.95

Briefly, Phage binding ELISA signal, Anti-PSMA Fab measured for VERLCMPEWMCLGF (also called Peptide-180 library clone) [Phage-3235] : 1.95

Briefly, Phage binding ELISA signal, Anti-PSMA Fab measured for LGIYCVPEWMCQGF (also called Peptide-180 library clone) [Phage-3230] : 1.95

Briefly, Phage binding ELISA signal, Anti-PSMA Fab measured for DGIRCVPNWMCVGF (also called Peptide-180 library clone) [Phage-3234] : 1.95

Briefly, Phage binding ELISA signal, Anti-PSMA Fab measured for PIVKCSPAWMCSGF (also called Peptide-180 library clone) [Phage-3227] : 1.95

Briefly, Phage binding ELISA signal, Anti-PSMA Fab measured for IVKACKPEWMCVGF (also called Peptide-180 library clone) [Phage-3232] : 1.95

Briefly, Phage binding ELISA signal, Anti-PSMA Fab measured for LTVLCEPAWMCVGF (also called Peptide-180 library clone) [Phage-3226] : 1.95

Briefly, Phage binding ELISA signal, Anti-PSMA Fab measured for PYAMCEPAWMCSGF (cysteine pairing not given here; also: fused to phage pIII, fusion site not given here, also called Peptide-180 library clone) [Phage-3233] : 1.95

Briefly, Phage binding ELISA signal, Anti-PSMA Fab measured for EYHKCIPEWMCAGF (cysteine pairing not given here; also: fused to phage pIII, fusion site not given here, also called Peptide-180 library clone) [Phage-3237] : 1.94
